Documented Drug metabolism across a set of compounds
- System: Plasma
- ASSAY NAME: Prodrug conversion in mouse plasma assessed as drug concentration at 6 hrs
- Format: ADME, cell-free

SMILES INPUT | Drug metabolism, %
Cl.O=C(O)/C=C/c1ccc(-c2ccc(OC(=O)N3CCC(N4CCCCC4)CC3)c(C34CC5CC(CC(C5)C3)C4)c2)cc1 | 100
NC1(C(=O)Oc2ccc(-c3ccc(/C=C/C(=O)O)cc3)cc2C23CC4CC(CC(C4)C2)C3)CC1.O=C(O)C(F)(F)F | 96.31
O=C(O)/C=C/c1ccc(-c2ccc(OC(=O)C3CC3)c(C34CC5CC(CC(C5)C3)C4)c2)cc1 | 100
CNCCNC(=O)Oc1ccc(-c2ccc(/C=C/C(=O)O)cc2)cc1C12CC3CC(CC(C3)C1)C2.Cl | 99.95

###

- ASSAY NAME: Chemical stability in aqueous buffer containing 5% DMSO and 5% tween 80 at pH 7.4 assessed as compound recovery in anoxic conditions after 24 hrs by UPLC analysis
- Format: physicochemical
- CONDITION DESCRIPTION: read-out: Stability
Documented remaining at 24 h across a set of compounds

SMILES INPUT | remaining at 24 h
N#CCOc1ccc(-c2ccc(/C=C/C(=O)O)cc2)cc1C12CC3CC(CC(C3)C1)C2 | > 99%
CCCCCCCCCCCNC(=O)Oc1ccc(-c2ccc(/C=C/C(=O)O)cc2)cc1C12CC3CC(CC(C3)C1)C2 | > 99%
Cl.O=C(O)/C=C/c1ccc(-c2ccc(OC(=O)NCCN3CCOCC3)c(C34CC5CC(CC(C5)C3)C4)c2)cc1 | 85%
O=C(O)/C=C/c1ccc(-c2ccc(OCCN3CCOCC3)c(C34CC5CC(CC(C5)C3)C4)c2)cc1 | > 99%
O=C(O)/C=C/c1ccc(-c2ccc(OCN3C(=O)c4ccccc4C3=O)c(C34CC5CC(CC(C5)C3)C4)c2)cc1 | > 99%
NC1(C(=O)Oc2ccc(-c3ccc(/C=C/C(=O)O)cc3)cc2C23CC4CC(CC(C4)C2)C3)CC1.O=C(O)C(F)(F)F | 62%
O=C(O)/C=C/c1ccc(-c2ccc(OC(=O)NCC(=O)O)c(C34CC5CC(CC(C5)C3)C4)c2)cc1 | > 99%
CC(C)C[C@H](NC(=O)Oc1ccc(-c2ccc(/C=C/C(=O)O)cc2)cc1C12CC3CC(CC(C3)C1)C2)C(=O)NCC(=O)O | > 99%

###

Documented IC50 across a set of compounds
- Test system: NCI-H460
- ASSAY NAME: Antiproliferative activity against human NCI-H460 cells incubated for 24 hrs drug exposure measured after 48 hrs of recovery by sulforhodamine B assay
- Format: functional, cell-based

SMILES INPUT | VALUE OPERATOR | IC50, nM
CCCCCCCCCCCNC(=O)Oc1ccc(-c2ccc(/C=C/C(=O)O)cc2)cc1C12CC3CC(CC(C3)C1)C2 | = | 1390
Cl.O=C(O)/C=C/c1ccc(-c2ccc(OC(=O)N3CCC(N4CCCCC4)CC3)c(C34CC5CC(CC(C5)C3)C4)c2)cc1 | > | 10000
NC1(C(=O)Oc2ccc(-c3ccc(/C=C/C(=O)O)cc3)cc2C23CC4CC(CC(C4)C2)C3)CC1.O=C(O)C(F)(F)F | = | 100
CC(=O)Oc1ccc(-c2ccc(/C=C/C(=O)O)cc2)cc1C12CC3CC(CC(C3)C1)C2 | = | 260
O=C(O)/C=C/c1ccc(-c2ccc(OC(=O)NC3CCN(C(=O)OCc4ccccc4)CC3)c(C34CC5CC(CC(C5)C3)C4)c2)cc1 | = | 5000
CCCOC(=O)OCOc1ccc(-c2ccc(/C=C/C(=O)O)cc2)cc1C12CC3CC(CC(C3)C1)C2 | = | 320
COCCOCOc1ccc(-c2ccc(/C=C/C(=O)O)cc2)cc1C12CC3CC(CC(C3)C1)C2 | = | 4200
O=C(O)/C=C/c1ccc(-c2ccc(OC(=O)NCC(=O)O)c(C34CC5CC(CC(C5)C3)C4)c2)cc1 | = | 3000

###

Documented remaining at 24 h across a set of compounds
- ASSAY NAME: Chemical stability in aqueous buffer containing 5% DMSO and 5% tween 80 at pH 7.4 assessed as compound recovery in anoxic conditions after 24 hrs by UPLC analysis
- Type: physicochemical
- CONDITION DESCRIPTION: read-out: Stability

COMPOUND | remaining at 24 h
O=C(O)/C=C/c1ccc(-c2ccc(OC(=O)NC3CCN(C(=O)OCc4ccccc4)CC3)c(C34CC5CC(CC(C5)C3)C4)c2)cc1 | > 99%
O=C(O)/C=C/c1ccc(-c2ccc(OC(=O)CCCN3CCOCC3)c(C34CC5CC(CC(C5)C3)C4)c2)cc1 | 88%
CCCCCCCCCCC(=O)Oc1ccc(-c2ccc(/C=C/C(=O)O)cc2)cc1C12CC3CC(CC(C3)C1)C2 | > 99%
CC(=O)Oc1ccc(-c2ccc(/C=C/C(=O)O)cc2)cc1C12CC3CC(CC(C3)C1)C2 | > 99%
CCCOC(=O)OCOc1ccc(-c2ccc(/C=C/C(=O)O)cc2)cc1C12CC3CC(CC(C3)C1)C2 | > 99%
CC(C)[C@H](N)C(=O)Oc1ccc(-c2ccc(/C=C/C(=O)O)cc2)cc1C12CC3CC(CC(C3)C1)C2.Cl | 12%
O=C(O)/C=C/c1ccc(-c2ccc(O)c(C34CC5CC(CC(C5)C3)C4)c2)cc1 [ADAROTENE] | > 99%
CNCCNC(=O)Oc1ccc(-c2ccc(/C=C/C(=O)O)cc2)cc1C12CC3CC(CC(C3)C1)C2.Cl | 36%

###

Documented remaining at 24 h across a set of molecules
- ASSAY NAME: Chemical stability in aqueous buffer containing 5% DMSO and 5% tween 80 at pH 6.8 assessed as compound recovery in anoxic conditions after 24 hrs by UPLC analysis
- Type: physicochemical
- CONDITION DESCRIPTION: read-out: Stability

SMILES INPUT | remaining at 24 h
CC(C)[C@H](N)C(=O)Oc1ccc(-c2ccc(/C=C/C(=O)O)cc2)cc1C12CC3CC(CC(C3)C1)C2.Cl | 39%
Cl.O=C(O)/C=C/c1ccc(-c2ccc(OC(=O)N3CCC(N4CCCCC4)CC3)c(C34CC5CC(CC(C5)C3)C4)c2)cc1 | > 99%
N#CCOc1ccc(-c2ccc(/C=C/C(=O)O)cc2)cc1C12CC3CC(CC(C3)C1)C2 | > 99%
O=C(O)/C=C/c1ccc(-c2ccc(OC(=O)CCCN3CCOCC3)c(C34CC5CC(CC(C5)C3)C4)c2)cc1 | 90%
Cl.NCCCCNC(=O)Oc1ccc(-c2ccc(/C=C/C(=O)O)cc2)cc1C12CC3CC(CC(C3)C1)C2 | > 99%
O=C(O)/C=C/c1ccc(-c2ccc(OC(=O)NCC(=O)O)c(C34CC5CC(CC(C5)C3)C4)c2)cc1 | > 99%
CCCCCCCCCCCNC(=O)Oc1ccc(-c2ccc(/C=C/C(=O)O)cc2)cc1C12CC3CC(CC(C3)C1)C2 | > 99%
O=C(O)/C=C/c1ccc(-c2ccc(O)c(C34CC5CC(CC(C5)C3)C4)c2)cc1 | > 99%
NC1(C(=O)Oc2ccc(-c3ccc(/C=C/C(=O)O)cc3)cc2C23CC4CC(CC(C4)C2)C3)CC1.O=C(O)C(F)(F)F | > 99%
CCCOC(=O)OCOc1ccc(-c2ccc(/C=C/C(=O)O)cc2)cc1C12CC3CC(CC(C3)C1)C2 | > 99%
O=C(O)/C=C/c1ccc(-c2ccc(OC(=O)COCCOCCOCC(=O)O)c(C34CC5CC(CC(C5)C3)C4)c2)cc1 | > 99%
CC(=O)Oc1ccc(-c2ccc(/C=C/C(=O)O)cc2)cc1C12CC3CC(CC(C3)C1)C2 | > 99%
CCCCCCCCCCC(=O)Oc1ccc(-c2ccc(/C=C/C(=O)O)cc2)cc1C12CC3CC(CC(C3)C1)C2 | > 99%
Cl.O=C(O)/C=C/c1ccc(-c2ccc(OC(=O)NCCN3CCOCC3)c(C34CC5CC(CC(C5)C3)C4)c2)cc1 | > 99%

###

- ASSAY NAME: Chemical stability in aqueous buffer containing 5% DMSO and 5% tween 80 at pH 7.4 assessed as compound recovery in anoxic conditions after 24 hrs by UPLC analysis
- Format: physicochemical
- CONDITION DESCRIPTION: read-out: Stability
Documented remaining at 24 h across a set of molecules
READOUT KIND: remaining at 24 h

SMILES INPUT | READOUT KIND | ENDPOINT RESULT
Cl.O=C(O)/C=C/c1ccc(-c2ccc(OC(=O)N3CCC(N4CCCCC4)CC3)c(C34CC5CC(CC(C5)C3)C4)c2)cc1 | remaining at 24 h | > 99%
CN1CCN(CCCC(=O)Oc2ccc(-c3ccc(/C=C/C(=O)O)cc3)cc2C23CC4CC(CC(C4)C2)C3)CC1 | remaining at 24 h | 64%
CC(C)NC(=O)Oc1ccc(-c2ccc(/C=C/C(=O)O)cc2)cc1C12CC3CC(CC(C3)C1)C2 | remaining at 24 h | > 99%
O=C(O)/C=C/c1ccc(-c2ccc(OC(=O)COCCOCCOCC(=O)O)c(C34CC5CC(CC(C5)C3)C4)c2)cc1 | remaining at 24 h | > 99%
Cl.NCCCCNC(=O)Oc1ccc(-c2ccc(/C=C/C(=O)O)cc2)cc1C12CC3CC(CC(C3)C1)C2 | remaining at 24 h | > 99%
O=C(O)/C=C/c1ccc(-c2ccc(OC(=O)C3CC3)c(C34CC5CC(CC(C5)C3)C4)c2)cc1 | remaining at 24 h | > 99%
